target: Human lung tryptase; assay: Ki determination, human lung tryptase (Tosyl-Gly-Pro-Arg-pNA substrate); conditions: 50 mM Tris-HCl pH 8.0, 37° C., 1 nM tryptase, 320 μM GPR-pNA; read-out: Experimentally Determined Ki, Tryptase
observed.property: pKi
// field semantics: pKi = negative decimal log of concentration (mol/L)

compound="N=C(N)c1ccc(C(=O)NCc2ccc(COCc3ccc(CNC(=O)c4ccc(C(=N)N)cc4)cc3)cc2)cc1 [Example 66]" reported_value=6.42
compound="N=C(N)c1cccc(C(=O)NCc2ccc(OCCCCOc3ccc(CNC(=O)c4cccc(C(=N)N)c4)cc3)cc2)c1 [Example 61]" reported_value=8.00
compound="N=C(N)c1ccc2[nH]c(CC(=O)NCc3ccc(OCCCOc4ccc(CNC(=O)Cc5nc6cc(C(=N)N)ccc6[nH]5)cc4)cc3)nc2c1 [Example 107]" reported_value=7.92
compound="N=C(N)c1ccc(C(=O)NCc2ccc(OCC3(COc4ccc(CNC(=O)c5ccc(C(=N)N)cc5)cc4)CCC3)cc2)cc1 [Example 93]" reported_value=9.00
compound="N=C(N)c1cccc(C(=O)NCc2ccc(OCCCCCOc3ccc(CNC(=O)c4cccc(C(=N)N)c4)cc3)cc2)c1 [Example 55]" reported_value=8.00

Let me check: N=C(N)c1cccc(C(=O)NCc2ccc(OCCCOc3ccc(CNC(=O)c4cccc(C(=N)N)c4)cc3)cc2)c1 [Example 63] , system Human lung tryptase, measured pKi is 7.70

Tested on Human lung tryptase, the item N=C(N)c1ccc(C(=O)NCc2ccc(OCCCOc3ccc(CNC(=O)c4cccc(C(=N)N)c4)cc3)cc2)cc1 [Example 85] showed pKi equal to 8.52
